Test description: small-molecule microarray binders of probe aLefty2, primary screen, biochemical, biotinylated probe, 635/667 nm fluorescence (AID 1094);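 note: score merges spot fluorescence near 667 nm with spot signal-to-noise ratio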
Measurement parameters: higher = more signal
We begin with a simple list: items and their reported composite z-score.
// return a plain number; no unit text

IN: Sample `COC(=O)c1c(CC[C@@H](CO)NC(=O)N[C@@H](Cc2ccccc2)Cn2cc(-c3cncn3C)nn2)oc(C(C)=O)c1C(=O)OC` — what was its composite z-score?
OUT: -0.215

IN: Sample `Cc1ccc(S[C@]2(C(=O)NCC(F)(F)F)CC(=O)N(C3CCCCC3)[C@@H]2c2ccc(CO)cc2)cc1` — what was its composite z-score?
OUT: 0.0078

IN: Sample `CCOC(=O)C[C@H]1[C@H](OC(=O)c2cc3ccccc3oc2=O)[C@@H](NC(=O)C2CCCCC2)c2cc(OCCCO)ccc2N1C(=O)Cc1ccc(OC)cc1` — what was its composite z-score?
OUT: 0.0424

IN: Sample `C=CC[C@@]1(C(=O)O)N=C(c2ccc(OCCCO)cc2)O[C@@H]1c1ccccc1CN=[N+]=[N-]` — what was its composite z-score?
OUT: 0.0806

IN: Sample `C=CCN1C(=O)[C@]2(O[C@H](CCn3cc([C@H](O)c4ccccc4)nn3)[C@@H]([Si](C)(C)c3ccc(OC)cc3)[C@@H]2C)c2cc(N3C(=O)c4cccc5cccc3c45)ccc21` — what was its composite z-score?
OUT: -0.217

IN: Sample `COC(=O)[C@]1(CO)N=C(c2ccc(OCCCO)cc2)O[C@@H]1c1ccccc1CN=[N+]=[N-]` — what was its composite z-score?
OUT: -0.0884

IN: Sample `COCCOC(=O)N1C(=O)[C@@]2(c3cc(C#CCCO)ccc31)[C@H](c1ccccc1OCCO)N1[C@H](c3ccccc3)[C@H](c3ccccc3)OC(=O)[C@H]1[C@@H]2C(=O)N1CCc2cc(OC)c(OC)cc2C1` — what was its composite z-score?
OUT: -0.0616

IN: Sample CN1C(=O)C2C(C1=O)C1C=C(c3ccc(CO)cc3)C2C(c2cccs2)N1C (stereo not given) — what was its composite z-score?
OUT: -0.072

IN: Sample `CC(C)CNC(=O)[C@@H]1c2ccccc2C(=O)N(C2Cc3ccccc3C2)[C@H]1c1ccc(CO)cc1` — what was its composite z-score?
OUT: 0.159

IN: Sample `CCCCCCc1nc(-c2ccc(OC)nc2)cc2c1[Si](C(C)C)(C(C)C)OC2` — what was its composite z-score?
OUT: -0.143
